Measured IC50, listed per entry for reference.
test target: PAR4 (Homo sapiens (Human), UniProt Q96RI0)
Sequence (Q96RI0 18-385): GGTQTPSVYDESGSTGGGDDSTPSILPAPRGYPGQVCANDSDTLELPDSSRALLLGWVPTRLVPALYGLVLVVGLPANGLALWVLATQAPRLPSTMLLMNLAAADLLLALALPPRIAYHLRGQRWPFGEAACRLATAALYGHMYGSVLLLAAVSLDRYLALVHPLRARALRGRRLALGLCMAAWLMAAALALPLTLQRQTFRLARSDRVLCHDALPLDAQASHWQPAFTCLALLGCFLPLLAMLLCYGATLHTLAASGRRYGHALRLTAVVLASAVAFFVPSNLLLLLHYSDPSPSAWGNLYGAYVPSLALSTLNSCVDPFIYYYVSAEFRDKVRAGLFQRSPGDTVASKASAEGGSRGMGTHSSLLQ
experiment: FLIPR assay in PAR4-expressing HEK293 cells (calcium mobilization)
measurement setup: H-Ala-Phe(4-F)-Pro-Gly-Trp-Leu-Val-Lys-Asn-Gly-NH2-induced calcium mobilization, PAR4 antagonist activity
State the answer as a number, implicitly in nM.

Ask: Query for PAR4 (Homo sapiens (Human), UniProt Q96RI0): what IC50 does the record show for COc1cc(OCc2csc(-c3ccc(C(=O)N(CCO)C(C)(C)C)cc3)n2)c2sc(-c3cn4nc(C(C)(F)F)sc4n3)nc2c1 ?
Result: 81000

Ask: For the record COc1cc(OCc2csc(-c3ccc(C(=O)N(C)CC#N)cc3)n2)c2sc(-c3cn4nc(C5CC5)sc4n3)nc2c1 , what value of IC50 is listed for PAR4 (Homo sapiens (Human), UniProt Q96RI0)?
Result: 1200

Ask: What reported IC50 corresponds to COc1cc(OCc2csc(-c3ccc(C(=O)N4CCOC[C@H]4CO)cc3)n2)c2sc(-c3cn4nc(C(C)(F)F)sc4n3)nc2c1 on PAR4 (Homo sapiens (Human), UniProt Q96RI0)?
Result: 920

Ask: Report IC50 for COc1cc(OCc2csc(-c3ccc(C(=O)N4CCC[C@H](O)C4)cc3)n2)c2sc(-c3cn4nc(C(C)(F)F)sc4n3)nc2c1 tested on PAR4 (Homo sapiens (Human), UniProt Q96RI0).
Result: 15000

Ask: Lab request: please report IC50 under test system PAR4 (Homo sapiens (Human), UniProt Q96RI0) for COc1cc(OCc2nc(-c3ccc(C(=O)N(C)C)cc3)sc2C)c2sc(-c3cn4nc(C)sc4n3)nc2c1
Result: 1700

----------
test target: PAR4 (Homo sapiens (Human), UniProt Q96RI0)
experiment: FLIPR assay in PAR4-expressing HEK293 cells (calcium mobilization)
measurement setup: H-Ala-Phe(4-F)-Pro-Gly-Trp-Leu-Val-Lys-Asn-Gly-NH2-induced calcium mobilization, PAR4 antagonist activity
measurement label: IC50 (nM)
Form entry: value (nM) — number only.

1) COc1cc(OCc2csc(-c3ccc(C(=O)N4CC[C@@H](CO)C4)cc3)n2)c2sc(-c3cn4nc(C)sc4n3)nc2c1	1800

Ask: What IC50 value was documented for this molecule, COc1cc(OCc2csc(-c3ccc(C(=O)N(CCO)C(C)(C)C)cc3)n2)c2sc(-c3cn4nc(C5CC5)sc4n3)nc2c1 ?
Result: 80000

Ask: Look at this molecule and give its reported IC50. COc1cc(OCc2nc(-c3ccc(C(=O)N4CCC(CCO)CC4)cc3)sc2C)c2sc(-c3cn4nc(C)sc4n3)nc2c1
Result: 1100

Ask: Data request, read-out IC50, for COc1cc(OCc2csc(-c3ccc(C(=O)N(C)C)cc3)n2)c2sc(-c3cn4nc(C5CC5)sc4n3)nc2c1
Result: 3700

----------
Entries and their pIC50 values follow.
test target: PAR4 (Homo sapiens (Human), UniProt Q96RI0)
experiment: FLIPR assay in PAR4-expressing HEK293 cells (calcium mobilization)
measurement setup: H-Ala-Phe(4-F)-Pro-Gly-Trp-Leu-Val-Lys-Asn-Gly-NH2-induced calcium mobilization, PAR4 antagonist activity
Hey, just a heads up that pIC50 is the negative log base 10 of the concentration in molar.

1) COc1cc(OCc2csc(-c3ccc(C(=O)N4CCC[C@H](O)C4)cc3)n2)c2sc(-c3cn4nc(C5CC5)sc4n3)nc2c1 [Example 26]	5.04
2) COc1cc(OCc2csc(-c3ccc(C(=O)N(C)[C@H]4CCOC4)cc3)n2)c2sc(-c3cn4nc(C(C)(F)F)sc4n3)nc2c1 [Example 15]	5.43
3) COc1cc(OCc2csc(-c3ccc(C(=O)N(C)C)cc3)n2)c2sc(-c3cn4nc(C)sc4n3)nc2c1 [Example 6]	5.42

Ask: Quick one: pIC50 of COc1cc(OCc2csc(-c3ccc(C(=O)N4CCOC[C@H]4CO)cc3)n2)c2sc(-c3cn4nc(C)sc4n3)nc2c1 [Example 9] ?
Result: 6.48
